Origin of measurements: paper PMC6105804

Provide the reported Ratio of AUC with ABT/AUC without ABT, p.o. dosing of each item.
- procedure_text: Single-dose mouse pharmacokinetics of prodrugs with or without ABT
- Assay type: in vivo
- measurement_conditions: 26 mg/kg prodrug
One number for each entry.

Past entries and their recorded results:
# Ratio of AUC with ABT/AUC without ABT, p.o. dosing of Nc1ncccc1-c1cc(Cc2ccc(OCc3ccccc3)nc2)no1 = 14.3

# Ratio of AUC with ABT/AUC without ABT, p.o. dosing of Nc1ncccc1-c1cc(Cc2ccc(Oc3cccc(F)n3)cc2)no1 = 8.6

# Ratio of AUC with ABT/AUC without ABT, p.o. dosing of Nc1ncccc1-c1cc(Cc2ccc(COc3ccccn3)cc2)no1 [APX001A] = 15.0

Next:
# Ratio of AUC with ABT/AUC without ABT, p.o. dosing of Nc1ncccc1-c1cc(Cc2ccc(OCc3ccccc3)cc2)no1 = 9.3

###

- procedure_text: Single-dose mouse pharmacokinetics of prodrugs with or without ABT
- Format: in vivo
- measurement_conditions: 26 mg/kg prodrug
quantity: Ratio of AUC with ABT/AUC without ABT, i.p. dosing

# Ratio of AUC with ABT/AUC without ABT, i.p. dosing of Nc1ncccc1-c1cc(Cc2ccc(OCc3ccccc3)nc2)no1 [APX2041] = 15.5

List Ratio of AUC with ABT/AUC without ABT, i.p. dosing for every entry below, keeping the order given.
1. Nc1ncccc1-c1cc(Cc2ccc(Oc3cccc(F)n3)cc2)no1 [APX2039]
2. Nc1ncccc1-c1cc(Cc2ccc(COc3ccccn3)cc2)no1 [APX001A]
3. Nc1ncccc1-c1cc(Cc2ccc(OCc3ccccc3)cc2)no1 [APX2020]

[8.3, 5.6, 8.3]

###

Provide the reported log10 of MIC of each item.
- Tested on: C. neoformans
- procedure_text: Broth microdilution susceptibility testing (CLSI M27-A3)
- Format: cell-based, Cryptococcus neoformans
- measurement_conditions: Cryptococcus neoformans, C. neoformans isolate DUMC 158.03 (FLC resistant); read-out: MIC
Values below are the log10 of the recorded MIC, with µg/mL as the unit.

Past entries and their recorded results:
Record Nc1ncccc1-c1cc(Cc2ccc(OCc3ccccc3)cc2)no1 ; system C. neoformans; log10 of MIC = -0.60

Record Nc1ncccc1-c1cc(Cc2ccc(COc3ccccn3)cc2)no1 [APX001A] ; system C. neoformans; log10 of MIC = -0.60

Record Nc1ncccc1-c1cc(Cc2ccc(Oc3cccc(F)n3)cc2)no1 ; system C. neoformans; log10 of MIC = -1.51

Record C[C@@H]1[C@H](O)[C@@H](C)/C=C/C=C/C=C/C=C/C=C/C=C/C=C/[C@H](O[C@@H]2O[C@H](C)[C@@H](O)[C@H](N)[C@@H]2O)C[C@@H]2O[C@](O)(C[C@@H](O)C[C@@H](O)[C@H](O)CC[C@@H](O)C[C@@H](O)CC(=O)O[C@H]1C)C[C@H](O)[C@H]2C(=O)O [AMB, amphotericin B, reference compound] ; system C. neoformans; log10 of MIC = 0.00

List log10 of MIC for every entry below, keeping the order given.
1. Nc1ncccc1-c1cc(Cc2ccc(OCc3ccccc3)nc2)no1
2. OC(Cn1cncn1)(Cn1cncn1)c1ccc(F)cc1F [FLC, fluconazole, reference compound]

1: -0.90; 2: 1.51
